System: Staphylococcus aureus
Experiment: Antibacterial activity against Staphylococcus aureus ATCC 6538
Format: functional
Entries and their MIC values follow.
Kindly answer with a numeric value in µg/mL, unit omitted.

Some compounds with recorded MIC:
compound | measured
Cc1ccc(/N=C(/Cc2ccc(Cl)cc2)c2ccc(O)c(O)c2O)cc1 | 25
Oc1ccc(/N=C(/Cc2ccc(F)cc2)c2ccc(O)c(O)c2)cc1 | 50
NC[C@H]1O[C@H](O[C@H]2[C@H](O)[C@@H](O[C@H]3O[C@H](CO)[C@@H](O)[C@H](N)[C@H]3O)[C@H](N)C[C@@H]2N)[C@H](N)[C@@H](O)[C@@H]1O [BEKANAMYCIN] | 1.56

Enquiry: Give MIC for the following compound: O=[N+]([O-])c1ccc(/N=C(/Cc2ccc(Cl)cc2)c2ccc(O)c(O)c2)cc1
Return: 12.5

###

Test system: Staphylococcus aureus
Assay: Antibacterial activity against Staphylococcus aureus ATCC 6538
Assay type: functional
Entries and their MIC values follow.
Kindly answer with a numeric value in mg/L, unit omitted.

given_smiles | MIC [mg/L]
Oc1ccc(/C(Cc2ccc(Cl)cc2)=N\c2ccc(Br)cc2)c(O)c1 | 25
O=[N+]([O-])c1ccc(/N=C(/Cc2ccc(F)cc2)c2ccc(O)c(O)c2O)cc1 | 25
Oc1ccc(/N=C(/Cc2ccc(Cl)cc2)c2ccc(O)c(O)c2)cc1 | 50
O=[N+]([O-])c1ccc(/N=C(/Cc2ccc(Cl)cc2)c2ccc(O)cc2O)cc1 | 12.5
Oc1ccc(/N=C(/Cc2ccc(F)cc2)c2ccc(O)cc2O)cc1 | 25
Cc1ccc(/N=C(/Cc2ccc(Cl)cc2)c2ccc(O)c(O)c2)cc1 | 50

Enquiry: Tell me its MIC on Staphylococcus aureus: Cc1ccc(/N=C(/Cc2ccc(F)cc2)c2ccc(O)c(O)c2)cc1
Return: 12.5

Enquiry: Tell me its MIC on Staphylococcus aureus: Oc1ccc(/C(Cc2ccc(Cl)cc2)=N\c2ccc(Br)cc2)cc1O
Return: 25

Enquiry: Tell me its MIC on Staphylococcus aureus: Oc1ccc(/C(Cc2ccc(F)cc2)=N\c2ccc(Br)cc2)cc1O
Return: 50

Enquiry: Tell me its MIC on Staphylococcus aureus: Oc1ccc(/C(Cc2ccc(F)cc2)=N\c2ccc(Cl)cc2)c(O)c1O
Return: 50

###

Test system: Staphylococcus aureus
Assay: Antibacterial activity against Staphylococcus aureus ATCC 6538
Format: functional
Entries and their MIC values follow.
Kindly answer with a numeric value in µg/mL, unit omitted.

Some compounds with recorded MIC:
given_smiles | MIC [µg/mL]
O=[N+]([O-])c1ccc(/N=C(/Cc2ccc(F)cc2)c2ccc(O)cc2O)cc1 | 50
Oc1ccc(/C(Cc2ccc(Cl)cc2)=N\c2ccc(Cl)cc2)cc1O | 50
Oc1ccc(/C(Cc2ccc(Cl)cc2)=N\c2ccc(Cl)cc2)c(O)c1O | 50
O=[N+]([O-])c1ccc(/N=C(/Cc2ccc(Cl)cc2)c2ccc(O)c(O)c2O)cc1 | 50

Enquiry: Give MIC for the following compound: Oc1ccc(/C(Cc2ccc(Cl)cc2)=N\c2ccc(Br)cc2)c(O)c1O
Return: 50

Enquiry: Give MIC for the following compound: Oc1ccc(/C(Cc2ccc(F)cc2)=N\c2ccc(Cl)cc2)c(O)c1
Return: 50

Enquiry: Give MIC for the following compound: Oc1ccc(/C(Cc2ccc(Cl)cc2)=N\c2ccc(Cl)cc2)c(O)c1
Return: 25

Enquiry: Give MIC for the following compound: Oc1ccc(/C(Cc2ccc(F)cc2)=N\c2ccc(Br)cc2)c(O)c1O
Return: 25

Enquiry: Give MIC for the following compound: Cc1ccc(/N=C(/Cc2ccc(Cl)cc2)c2ccc(O)cc2O)cc1
Return: 12.5
